Substrate: O=Cc1ccc(CO)o1
assay.procedure: HMF sulfoconjugation assay
Type: biochemical, human
assay.setup: other: catalytic efficiency of HMF sulfoconjugation; pH 7.4
Protocol: Cytosolic fractions containing individual SULT forms were prepared from transgenic S. typhimurium TA1538. […] The protein concentrations were determined according to a bicinchoninic acid (BCA) assay protocol. […] SMF concentrations of the clear supernatants were analyzed by UPLC-MS/MS. The protocol was adapted from the quantification of SMF in plasma samples of HMF-treated mice (Monien et al. [2009]). […]
readout.name: kcat/Km (M⁻¹ s⁻¹)
Just the number in M⁻¹ s⁻¹, nothing appended.

Examples from the recorded data:
hSULT1A2 (Homo sapiens) (protein, made in house; host or cells: Salmonella typhimurium TA1538 (cytosolic fraction, not purified)) MELIQDISRPPLEYVKGVPLIKYFAEALGPLQSFQARPDDLLISTYPKSGTTWVSQILDMIYQGGDLEKCHRAPIFMRVPFLEFKVPGIPSGMETLKNTPAPRLLKTHLPLALLPQTLLDQKVKVVYVARNAKDVAVSYYHFYHMAKVYPHPGTWESFLEKFMAGEVSYGSWYQHVQEWWELSRTHPVLYLFYEDMKENPKREIQKILEFVGRSLPEETVDLMVEHTSFKEMKKNPMTNYTTVRREFMDHSISPFMRKGMAGDWKTTFTVAQNERFDADYAKKMAGCSLSFRSEL    0.71
hSULT1A1 (Homo sapiens) (protein, made in house; host or cells: Salmonella typhimurium TA1538 (cytosolic fraction, not purified)) MELIQDTSRPPLEYVKGVPLIKYFAEALGPLQSFQARPDDLLISTYPKSGTTWVSQILDMIYQGGDLEKCHRAPIFMRVPFLEFKAPGIPSGMETLKDTPAPRLLKTHLPLALLPQTLLDQKVKVVYVARNAKDVAVSYYHFYHMAKVHPEPGTWDSFLEKFMVGEVSYGSWYQHVQEWWELSRTHPVLYLFYEDMKENPKREIQKILEFVGRSLPEETVDFVVQHTSFKEMKKNPMTNYTTVPQEFMDHSISPFMRKGMAGDWKTTFTVAQNERFDADYAEKMAGCSLSFRSEL    13.7
hSULT1A3 (Homo sapiens) (protein, made in house; host or cells: Salmonella typhimurium TA1538 (cytosolic fraction, not purified)) MELIQDTSRPPLEYVKGVPLIKYFAEALGPLQSFQARPDDLLINTYPKSGTTWVSQILDMIYQGGDLEKCNRAPIYVRVPFLEVNDPGEPSGLETLKDTPPPRLIKSHLPLALLPQTLLDQKVKVVYVARNPKDVAVSYYHFHRMEKAHPEPGTWDSFLEKFMAGEVSYGSWYQHVQEWWELSRTHPVLYLFYEDMKENPKREIQKILEFVGRSLPEETMDFMVQHTSFKEMKKNPMTNYTTVPQELMDHSISPFMRKGMAGDWKTTFTVAQNERFDADYAEKMAGCSLSFRSEL    0.26

Any idea what its kcat/Km is? The protein is hSULT1C2 (Homo sapiens) (protein, made in house; host or cells: Salmonella typhimurium TA1538 (cytosolic fraction, not purified)) MALHDMEDFTFDGTKRLSVNYVKGILQPTDTCDIWDKIWNFQAKPDDLLISTYPKAGTTWTQEIVELIQNEGDVEKSKRAPTHQRFPFLEMKIPSLGSGLEQAHAMPSPRILKTHLPFHLLPPSLLEKNCKIIYVARNPKDNMVSYYHFQRMNKALPAPGTWEEYFETFLAGKVCWGSWHEHVKGWWEAKDKHRILYLFYEDMKKNPKHEIQKLAEFIGKKLDDKVLDKIVHYTSFDVMKQNPMANYSSIPAEIMDHSISPFMRKGAVGDWKKHFTVAQNERFDEDYKKKMTDTRLTFHFQF
0.73
